biological target: Rhodopsin kinase GRK7 (Homo sapiens); details: at 0.1 µM;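 also: reported figures are mean percent inhibition of GRK7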
readout: inhibition (%)
Answers are plain numbers, in %.

Some solved cases for reference:
Enquiry: Looking for the measured inhibition of CS(=O)(=O)Nc1cccc(-c2ccc3c(NC(=O)C4CC4)n[nH]c3c2)c1 , can you help?
Return: 0.25

Enquiry: // lookup inhibition for Cc1ccc(O)cc1Nc1ccnc2ccc(S(C)(=O)=O)cc12
Return: 3.42

Enquiry: Entry under review: Cc1cc(Cl)cc2c1NC(=O)C2=NNc1ccc(S(N)(=O)=O)cc1 . Reported inhibition?
Return: 5.48

Enquiry: Look up inhibition: NC(=O)c1cccc(Nc2nccc(Nc3cccc(F)c3)n2)c1
Return: 4.02

Enquiry: Requested read-out: inhibition. Entry: NS(=O)(=O)c1cccc(-c2cc3ccncc3cc2OCc2ccccc2)c1
Return: 2.9

Enquiry: Could you share which inhibition value was measured for Cc1ccc2c(c1)/C(=N/Nc1ccc(S(N)(=O)=O)cc1)C(=O)N2 ?
Return: 0.29

Enquiry: May I ask what inhibition has been recorded for OCc1ccc(-c2nc(-c3ccccn3)c(-c3ccc4c(c3)OCO4)[nH]2)cc1 ?
Return: 2.93

Enquiry: inhibition lookup needed for NS(=O)(=O)c1ccc(-c2cc3ccncc3cc2OCc2ccccc2)cc1 , thanks.
Return: 1.52

Need inhibition for each of these compounds.
1. CCS(=O)(=O)c1ccc(OC)c(Nc2ncc(-c3cccc(OC)c3)o2)c1
2. COc1ccc(-c2nn3ncccc3c2-c2ccnc(Nc3cccc(C(F)(F)F)c3)n2)cc1

Return:
[-0.18, 5.25]

* * *

Field: inhibition. Provide a value for each of the molecules that follow.
biological target: Tyrosine-protein kinase Fes/Fps (Homo sapiens); conditions: at 0.1 µM
Description: GSK_PKIS: FES mean inhibition at 0.1 uM [Nanosyn]
Give bare numbers, in %.

Past entries and their recorded results:
Enquiry: Query inhibition on Tyrosine-protein kinase Fes/Fps (Homo sapiens) for O=C1Nc2ccccc2/C1=C/Nc1ccc2[nH]c(=O)[nH]c2c1
Return: 4.03

Enquiry: What is its inhibition for Tyrosine-protein kinase Fes/Fps (Homo sapiens)? Entry: COC(=O)c1cncc(/C=C/c2c(C)cc(O)cc2C)c1
Return: 1.96

Enquiry: Missing value: inhibition, Tyrosine-protein kinase Fes/Fps (Homo sapiens), entry CN(C)c1cc2c(Nc3ccc4c(cnn4Cc4ccccc4)c3)ncnc2cn1 . Fill in?
Return: 2.58

Enquiry: Request: inhibition, test system Tyrosine-protein kinase Fes/Fps (Homo sapiens), entry Cc1ccc(Nc2ccnc(Nc3cccc(C(N)=O)c3)n2)cc1O
Return: 2.5

Enquiry: Recorded inhibition for Cc1ccc(NC(=O)CC2CC2)cc1-c1ccc(C(=O)NCC2CC2)cc1 with Tyrosine-protein kinase Fes/Fps (Homo sapiens), please?
Return: 2.28

Please state, for each entry, its recorded inhibition.
1. NS(=O)(=O)c1ccc(Nc2cc(-c3cccc(O)c3)n[nH]2)cc1
2. COc1cccc(-n2nc(C)c3c(N/N=C(\C)c4ccncc4)ncnc32)c1
3. COc1cc2ncn(-c3cc(OCc4ccccc4S(C)(=O)=O)c(C#N)s3)c2cc1OC
4. COc1cccc(-n2ncc3c(N/N=C/c4ccc(C)cc4)ncnc32)c1
5. CC(C)c1ccc2c(c1)NC(=O)/C2=N/Nc1ccc(S(N)(=O)=O)cc1
6. N#Cc1c(NC(=O)c2ccccc2F)sc2c1CCCC2

Return:
3.6
0.8
2.71
5.32
0.91
-0.84

Quick request: inhibition for each listed item, please.
1. Nc1ccc(C#Cc2cncnc2Nc2ccc(OCc3cccc(F)c3)c(Cl)c2)cc1
2. Nc1nccc(-c2c(-c3ccc(F)cc3)ncn2CCCN2CCOCC2)n1

Return:
1: 2.44; 2: 3.13

For each of the molecules below, state inhibition.
1. Cc1ccc2c(-c3ccnc(Nc4ccc5c(c4)OCCO5)n3)c(-c3ccc(C(F)(F)F)cc3)nn2n1
2. Nc1nccc(C#Cc2cncnc2Nc2ccc(OCc3cccc(F)c3)c(Cl)c2)n1

Return:
[0.95, 3.46]

* * *

biological target: Mitogen-activated protein kinase 1 (Homo sapiens) (UniProt P28482); details: at 1 µM
Sequence (P28482 whole entry): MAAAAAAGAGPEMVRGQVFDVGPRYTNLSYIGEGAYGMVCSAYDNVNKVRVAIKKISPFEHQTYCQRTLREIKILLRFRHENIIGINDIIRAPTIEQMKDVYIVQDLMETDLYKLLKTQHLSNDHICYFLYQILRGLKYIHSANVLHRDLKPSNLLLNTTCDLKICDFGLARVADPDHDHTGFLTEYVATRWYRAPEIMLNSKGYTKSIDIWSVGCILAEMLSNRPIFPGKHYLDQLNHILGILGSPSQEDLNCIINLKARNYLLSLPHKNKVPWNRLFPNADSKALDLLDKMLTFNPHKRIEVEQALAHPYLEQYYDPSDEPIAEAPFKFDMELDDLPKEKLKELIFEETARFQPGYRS
readout: inhibition (%)
Numbers only, in %.

Enquiry: Could you share what inhibition was measured for Cc1ccc2c(-c3ccnc(Nc4cccc(C(F)(F)F)c4)n3)c(-c3ccccc3)nn2n1 , tested on Mitogen-activated protein kinase 1 (Homo sapiens) (UniProt P28482)?
Return: 9.3

Enquiry: Lab request: please report inhibition under test system Mitogen-activated protein kinase 1 (Homo sapiens) (UniProt P28482) for CS(=O)(=O)CCNCc1nc(-c2ccc3ncnc(Nc4ccc(OCc5cccc(C(F)(F)F)c5)cc4)c3c2)cs1;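 also: values are mean inhibition, from the GSK PKIS collection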
Return: 1.79

Okay, here is my list. What is inhibition for each of these?
1. O=C1Nc2ccc(-c3cccnc3)cc2C1=Cc1cc(Br)c(O)c(Br)c1
2. Nc1ccc(C#Cc2cncnc2Nc2ccc(OCc3cccc(F)c3)c(Cl)c2)cc1
3. CC(C)c1ccc2c(c1)NC(=O)/C2=N/Nc1ccc(S(N)(=O)=O)cc1

Return:
3.37
3.67
0.4

Items follow; give inhibition for each.
1. CN(C)C(=O)O[C@H]1CN[C@H](C#Cc2cc3ncnc(Nc4ccc(OCc5cccc(F)c5)c(Cl)c4)c3s2)C1
2. CN(C)c1cc2c(Nc3ccc4c(cnn4Cc4ccccc4)c3)ncnc2cn1
3. NS(=O)(=O)c1cccc(-c2cc3ccncc3cc2OCc2ccccc2)c1
4. NC(=O)c1cccc(Nc2nccc(Nc3cccc(F)c3)n2)c1
5. Cc1ccc(O)cc1Nc1ccnc2ccc(S(C)(=O)=O)cc12
6. Cc1ccc2c(c1)/C(=N/Nc1ccc(S(N)(=O)=O)cc1)C(=O)N2

Return:
1. 2.89
2. 3.41
3. 5.84
4. 2.19
5. 5.63
6. 2.7

Report inhibition for every entry below.
1. Nc1nccc(C#Cc2cncnc2Nc2ccc(OCc3cccc(F)c3)c(Cl)c2)n1
2. N#Cc1c(NC(=O)c2ccccc2F)sc2c1CCCC2
3. Cc1ccc(Nc2ccnc(Nc3cccc(C(N)=O)c3)n2)cc1O

Return:
1. 4.87
2. -1.13
3. 4.19

* * *

target: Serine/threonine-protein kinase SIK2 (Homo sapiens) (UniProt Q9H0K1); details: at 1 µM;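 also: mean inhibition of SNF1LK2 (QIK) kinase activity, from the GSK PKIS screening panel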
Sequence (Q9H0K1 whole entry, looked up): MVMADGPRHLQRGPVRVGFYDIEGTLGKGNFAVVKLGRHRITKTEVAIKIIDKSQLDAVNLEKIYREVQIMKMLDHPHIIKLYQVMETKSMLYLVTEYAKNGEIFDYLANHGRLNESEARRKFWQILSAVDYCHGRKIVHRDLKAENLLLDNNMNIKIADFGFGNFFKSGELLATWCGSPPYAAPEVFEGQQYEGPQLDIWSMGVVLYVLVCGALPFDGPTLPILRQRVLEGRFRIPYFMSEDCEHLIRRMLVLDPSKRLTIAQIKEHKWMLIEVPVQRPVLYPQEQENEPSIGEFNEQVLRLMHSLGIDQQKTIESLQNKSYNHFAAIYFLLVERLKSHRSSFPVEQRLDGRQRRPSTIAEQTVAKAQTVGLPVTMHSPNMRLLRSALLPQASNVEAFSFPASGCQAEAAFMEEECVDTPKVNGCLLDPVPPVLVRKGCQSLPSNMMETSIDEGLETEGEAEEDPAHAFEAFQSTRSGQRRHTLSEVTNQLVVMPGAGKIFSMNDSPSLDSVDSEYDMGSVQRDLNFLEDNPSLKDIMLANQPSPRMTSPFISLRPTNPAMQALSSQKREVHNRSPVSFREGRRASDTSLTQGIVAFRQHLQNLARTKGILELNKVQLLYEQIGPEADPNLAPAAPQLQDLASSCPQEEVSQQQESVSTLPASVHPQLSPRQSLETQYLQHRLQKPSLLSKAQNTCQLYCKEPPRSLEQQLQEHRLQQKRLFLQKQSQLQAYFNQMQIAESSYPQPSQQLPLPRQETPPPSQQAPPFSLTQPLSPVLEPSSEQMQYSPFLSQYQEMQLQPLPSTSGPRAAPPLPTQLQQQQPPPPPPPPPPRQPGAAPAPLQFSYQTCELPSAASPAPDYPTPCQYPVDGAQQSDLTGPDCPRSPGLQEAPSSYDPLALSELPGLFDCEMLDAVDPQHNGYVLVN
readout: inhibition (%)
One number for each entry, in %.

Below, 10 compounds whose answers are already recorded.
Enquiry: Could you share which inhibition value was measured for CC(C)c1ccc2c(c1)NC(=O)/C2=N/Nc1ccc(S(N)(=O)=O)cc1 ?
Return: 2.16

Enquiry: Which inhibition is listed for NS(=O)(=O)c1ccc(-c2cc3ccncc3cc2OCc2ccccc2)cc1 ?
Return: 4.1

Enquiry: I am curious: what inhibition value has been reported for COc1cccc(-n2ncc3c(N/N=C/c4ccc(C)cc4)ncnc32)c1 ?
Return: 14.7

Enquiry: Fill in: inhibition of C[C@@H](Oc1cc(-n2cnc3ccc(OC[C@@H](O)CO)cc32)sc1C(N)=O)c1ccccc1Cl is ___
Return: 10.6

Enquiry: Quick one: inhibition of NS(=O)(=O)c1ccc(N/N=C2\C(=O)Nc3ccc(Cl)cc32)cc1 ?
Return: 10.6

Enquiry: Given the compound NS(=O)(=O)c1ccc(NC=C2C(=O)Nc3ccc4ncsc4c32)cc1 , what is its reported inhibition?
Return: 40.7

Enquiry: Entry COc1cc(Nc2nccc(-c3cnn4ncccc34)n2)cc(OC)c1 : reported inhibition = ?
Return: 39.1

Enquiry: Consider the compound shown here: NS(=O)(=O)c1cccc(-c2cc3ccncc3cc2OCc2ccccc2)c1 What is its recorded inhibition?
Return: 3.39

Enquiry: # input compound: COc1cccc(-n2ncc3c(N/N=C/c4ccc(S(C)(=O)=O)cc4)ncnc32)c1 ; wanted: its inhibition
Return: 29.9

Enquiry: Would you mind telling me what inhibition value was observed for OCc1ccc(-c2nc(-c3ccccn3)c(-c3ccc4c(c3)OCO4)[nH]2)cc1 ?
Return: 7.48

Lab note: each compound below needs its inhibition filled in.
1. O=C1Nc2ccc(-c3cccnc3)cc2C1=Cc1cc(Br)c(O)c(Br)c1
2. Oc1cccc(-c2nc(-c3ccccc3)[nH]c2-c2ccncc2)c1
3. C[C@@H](Oc1cc(-n2cnc3ccc(OCC4CCN(C)CC4)cc32)sc1C(N)=O)c1ccccc1C(F)(F)F
4. NC(=O)c1cccc(Nc2nccc(Nc3cccc(F)c3)n2)c1
5. Cc1ccc(C(=O)NC2CC2)cc1-c1ccc2[nH]ncc2c1
6. CN(c1ccc(NC(=O)Nc2ccc(OC(F)(F)F)cc2)cc1)c1ccnc(Nc2cccc(S(N)(=O)=O)c2)n1

Return:
1: -0.16; 2: 10.2; 3: 30.3; 4: 25.1; 5: -7.9; 6: -0.49

Quick one: give me inhibition for each item below, same order please.
1. COC(=O)c1ccc2c(c1)C(=Cc1cc(Br)c(O)c(Br)c1)C(=O)N2
2. CCOc1nccc2c1nc(-c1nonc1N)n2CC
3. CCCN1CCCC(c2ccc(Nc3nc(Nc4cc(F)ccc4C(N)=O)c4cc[nH]c4n3)c(OC)c2)C1 (stereo unspecified)
4. N#Cc1cccc(Nc2nccc(-c3cnn4ncccc34)n2)c1

Return:
1: 9.93; 2: 9.31; 3: 11; 4: 11.9

Enquiry: Any idea what its inhibition is? The compound is CCn1c(-c2nonc2N)nc2ccc(F)cc21
Return: 12.5

Data credit: ChEMBL document CHEMBL1961873
